Below, each entry is listed with its recorded kd.
Biological target: T1, human PD-L2 antigen (Homo sapiens, UniProt Q9BQ51)
T1 sequence (Q9BQ51 20-273): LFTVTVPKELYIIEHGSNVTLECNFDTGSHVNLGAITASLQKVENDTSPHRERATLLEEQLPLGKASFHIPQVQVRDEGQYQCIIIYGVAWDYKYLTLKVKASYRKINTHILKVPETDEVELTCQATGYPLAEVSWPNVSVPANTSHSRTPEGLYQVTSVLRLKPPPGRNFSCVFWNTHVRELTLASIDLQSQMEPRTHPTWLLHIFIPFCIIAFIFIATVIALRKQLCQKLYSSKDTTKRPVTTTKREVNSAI
Assay: Single cycle kinetics on Biacore 8K, binding to human PD-L2 antigen
Conditions: Table 2, cell culture supernatants
Procedure: Table 2: Single cycle kinetic parameters of chimeric (VH0/VK0) and humanized variants (tested as cell culture supernatants) binding to human PD-L2 antigen as determined using the Biacore 8K. […] The binding affinity of antibodies of the disclosed invention may be measured or determined by standard antibody-antigen assays. The relative KD was calculated by dividing the KD of the humanized variant by that of the VH0/VK0 assayed in the same experiment.
Provide only the numeric value, understood in s⁻¹.

Known results for molecules:
- Molecule: "VH7/VK3: humanized anti-PD-L2 variant; SEQ ID NO: 7/SEQ ID NO: 12 (antibody, V domains shown) VH: QVQLVQSGAELKKPGSSVKVSCKASGYAFSNYFIEWVKQPPGKGLEWIGLNIPGSGGSNYAEKFKGRATITADKSTSTAYMELSSLRSEDTAVYYCARRRLPPDWYFDVWGQGTTVTVSS VL: DVVMTQSPLSLPVTLGQPASISCRSSQSLVHSGGNTYLHWYQQKPGQPPKLLIYKVSNRFSGVPDRFSGSGSGTDFTLKISRVEAEDVGVYFCSQSTHVPWTFGGGTKVEIK"
  Endpoint value: 0.000344
- Molecule: "VH3/VK3: humanized anti-PD-L2 variant; SEQ ID NO: 4/SEQ ID NO: 12 (antibody, V domains shown) VH: QVQLVQSGAEVKKPGSSVKVSCKASGYAFSNYFIEWVKQPPGKGLEWIGLNIPGSGGSNYAEKFKGRVTITADKSTSTAYMELSSLRSEDSAVYFCARRRLPPDWYFDVWGQGTTVTVSS VL: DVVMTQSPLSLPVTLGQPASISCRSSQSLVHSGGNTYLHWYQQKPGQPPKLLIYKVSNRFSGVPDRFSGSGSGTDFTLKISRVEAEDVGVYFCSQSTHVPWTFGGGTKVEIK"
  Endpoint value: 0.000497
- Molecule: "VH3/VK1: humanized anti-PD-L2 variant; SEQ ID NO: 4/SEQ ID NO: 10 (antibody, V domains shown) VH: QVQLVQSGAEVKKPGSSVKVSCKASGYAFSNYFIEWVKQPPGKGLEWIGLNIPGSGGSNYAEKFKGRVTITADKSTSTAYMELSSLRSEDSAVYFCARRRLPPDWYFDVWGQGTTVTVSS VL: DVVMTQSPLSLPVTLGQPASISCRSSQSLVHSDGNTYLHWYQQKPGQPPKLLIYKVSNRFSGVPDRFSGSGSGTDFTLKISRVEAEDVGVYFCSQSTHVPWTFGGGTKVEIK"
  Endpoint value: 0.000128

Let us examine a further case.
So what does the record say about kd for VH2/VK1: humanized anti-PD-L2 variant; SEQ ID NO: 3/SEQ ID NO: 10 (antibody, V domains shown) VH: QVQLVQSGAEVKKPGSSVKVSCKASGYAFSNYFIEWVKQPPGKGLEWIGLNIPGSGGSNYAEKFKGRATITADKSTSTAYMELSSLRSEDSAVYFCARRRLPPDWYFDVWGQGTTVTVSS VL: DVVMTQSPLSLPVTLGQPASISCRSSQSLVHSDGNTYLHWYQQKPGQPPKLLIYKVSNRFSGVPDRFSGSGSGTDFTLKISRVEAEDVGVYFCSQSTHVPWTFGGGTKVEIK ?
0.000119
